# reported CC50; entries follow
test system: K-562; assay: SRB colorimetric assay of cell growth and viability, K-562; assay type: cell-based, human; conditions: 48 hours exposure; read-out: LC50 K-562
Where a SMILES comes first, the peptide text is derived from it. Bridges are numbered along the chain shown (N, C = ends). [ ]: non-standard residue; d: D form. The star is where a group is joined. d(aIle) = CC[C@H](C)[C@@H](N)C(=O)O; d(aThr) = C[C@@H](O)[C@@H](N)C(=O)O; Hexanoyl(5-Me) = CC(C)CCCC(=O)*; Myristoyl = CCCCCCCCCCCCCC(=O)*; Orn = NCCC[C@H](N)C(=O)O; Dhb = C/C=C(\N)C(=O)O
Give the value, in units of µM, as a plain number.

The following compounds have reported results that may help.
1) C/C=C1\NC(=O)[C@H](Cc2ccccc2)NC(=O)[C@@H](C(C)C)NC(=O)[C@@H]([C@@H](C)CC)NC(=O)[C@H](NC(=O)[C@H](NC(=O)[C@H](CCCN)NC(=O)[C@H]2CCCN2C(=O)[C@H](NC(=O)[C@H](Cc2ccccc2)NC(=O)[C@@H](NC(=O)[C@H](NC(=O)CCCC(C)C)C(C)C)[C@@H](C)O)C(C)C)[C@@H](C)CC)[C@@H](C)OC(=O)[C@H](C(C)C)NC1=O [Compound 43, [Phe^11]-KF] ({Hexanoyl(5-Me)}-[dV]TF[dV][dP][Orn][d(aIle)][d(aThr)][d(aIle)][dV]F[Dhb]V; ester 8-C) | 3.85
2) C/C=C1\NC(=O)[C@H](Cc2ccccc2)NC(=O)[C@@H](C(C)C)NC(=O)[C@@H]([C@@H](C)CC)NC(=O)[C@H](NC(=O)[C@H](NC(=O)[C@H](CCCN)NC(=O)[C@H]2CCCN2C(=O)[C@H](NC(=O)[C@@H](NC(=O)[C@@H](NC(=O)[C@@H](CC(C)C)NC(=O)CCCC(C)C)[C@@H](C)O)C(C)C)C(C)C)[C@@H](C)CC)[C@@H](C)OC(=O)[C@H](C(C)C)NC1=O [Compound 35, [D-Leu^13]-KF] | 4.28
3) C/C=C1\NC(=O)[C@H](Cc2ccccc2)NC(=O)[C@@H](C(C)C)NC(=O)[C@@H]([C@@H](C)CC)NC(=O)[C@H](NC(=O)[C@H](NC(=O)[C@H](CCCN)NC(=O)[C@H]2CCCN2C(=O)[C@H](NC(=O)[C@H](CCCN)NC(=O)[C@@H](NC(=O)[C@H](NC(=O)CCCC(C)C)C(C)C)[C@@H](C)O)C(C)C)[C@@H](C)CC)[C@@H](C)OC(=O)[C@H](C(C)C)NC1=O [Compound 49, [Orn^11]-KF] ({Hexanoyl(5-Me)}-[dV]T[Orn][dV][dP][Orn][d(aIle)][d(aThr)][d(aIle)][dV]F[Dhb]V; ester 8-C) | 6.7
4) C/C=C1\NC(=O)[C@H](Cc2ccccc2)NC(=O)[C@@H](C(C)C)NC(=O)[C@@H]([C@@H](C)CC)NC(=O)[C@H](NC(=O)[C@H](NC(=O)[C@H](CCCN)NC(=O)[C@H]2CCCN2C(=O)[C@H](NC(=O)[C@@H](NC(=O)[C@@H](NC(=O)[C@H](NC(=O)CCCNC(=N)N)C(C)C)[C@@H](C)O)C(C)C)C(C)C)[C@@H](C)CC)[C@@H](C)OC(=O)[C@H](C(C)C)NC1=O [Compound 29, [4-GuBut^14]-KF] | 6.7

## Input Item C/C=C1\NC(=O)[C@H](Cc2ccccc2)NC(=O)[C@@H](C(C)C)NC(=O)[C@@H]([C@@H](C)CC)NC(=O)[C@H](NC(=O)[C@H](NC(=O)[C@H](CCCN)NC(=O)[C@H]2CCCN2C(=O)[C@H](NC(=O)CCCCCCCCCCCCC)C(C)C)[C@@H](C)CC)[C@@H](C)OC(=O)[C@H](C(C)C)NC1=O [Compound 32] (Myristoyl-[dV][dP][Orn][d(aIle)][d(aThr)][d(aIle)][dV]F[Dhb]V; ester 5-C) : provide CC50
## Output 7.83

## Input Item C/C=C1\NC(=O)[C@H](Cc2ccccc2)NC(=O)[C@@H](C(C)C)NC(=O)[C@@H]([C@@H](C)CC)NC(=O)[C@H](NC(=O)[C@H](NC(=O)[C@H](CCCN)NC(=O)[C@H]2CCCN2C(=O)[C@H](NC(=O)[C@@H](NC(=O)[C@@H](NC(=O)[C@H](NC(=O)c2ccc(C(F)(F)F)cc2)C(C)C)[C@@H](C)O)C(C)C)C(C)C)[C@@H](C)CC)[C@@H](C)OC(=O)[C@H](C(C)C)NC1=O [Compound 21, [p-CF3Bza^14]-KF] : provide CC50
## Output 6.5

## Input Item C/C=C1\NC(=O)[C@H](Cc2ccccc2)NC(=O)[C@@H](C(C)C)NC(=O)[C@@H]([C@@H](C)CC)NC(=O)[C@H](NC(=O)[C@H](NC(=O)[C@H](CCCN)NC(=O)[C@H]2CCCN2C(=O)[C@H](NC(=O)[C@@H](NC(=O)[C@@H](NC(=O)[C@@H](NC(=O)CCCC(C)C)C(C)C)[C@@H](C)O)C(C)C)C(C)C)[C@@H](C)CC)[C@@H](C)OC(=O)[C@H](C(C)C)NC1=O [Compound 38, [Val^13]-KF] : provide CC50
## Output 4.05

## Input Item C/C=C1\NC(=O)[C@H](Cc2ccccc2)NC(=O)[C@@H](C(C)C)NC(=O)[C@@H]([C@@H](C)CC)NC(=O)[C@H](NC(=O)[C@H](NC(=O)[C@H](CCCN)NC(=O)[C@H]2CCCN2C(=O)[C@H](NC(=O)[C@@H](NC(=O)CNC(=O)CCCC(C)C)C(C)C)C(C)C)[C@@H](C)CC)[C@@H](C)OC(=O)[C@H](C(C)C)NC1=O [Compound 53, [Gly^12, noD-Val^13]-KF] ({Hexanoyl(5-Me)}-GV[dV][dP][Orn][d(aIle)][d(aThr)][d(aIle)][dV]F[Dhb]V; ester 7-C) : provide CC50
## Output 7.49

Every entry's value here was drawn from patent US20070117743A1.
